Data origin: patent US9815851B2

target: RORγ ligand binding domain (LBD) (Homo sapiens); construct: made in house; host or cells: E. coli BL-21 (BL3), vector pDEST15; experiment: TR-FRET Activity Assay (ligand sensing, RORγ-LBD / coactivator peptide interaction, LANCE); assay type: biochemical; conditions: first value of the cell FRET/FF/REN; TR-FRET activity assay; read-out: pIC50 (FRET) (converted)
The reader will find reported IC50 values listed item by item below.
Just the number in µM, nothing appended.

Request the reported IC50 associated with Cc1c(C(=O)NC2COC2)cc(-c2cc(C(C)(C)C)cc(C(C)(C)C)c2)n1CC1CCCCCC1
0.251

Request the reported IC50 associated with Cc1c(C(=O)NCC(C)(C)C(=O)N(C)C)cc(-c2cc(C(C)(C)C)c3c(c2)C2(CCO3)CC2)n1CC1CCCCC1
0.251

Reported IC50 for Cc1c(C(=O)NCC(C)(C)O)cc(-c2ccc(S(=O)(=O)NC(C)(C)C)c3c(F)cccc23)n1CC1CCCCC1 : what is it?
1.26

Give the measured IC50 of Cc1c(C(=O)NC2CCOCC2)cc(-c2ccc(S(=O)(=O)NC(C)(C)C)c3cccnc23)n1CC1CCCCC1 .
2

Name the recorded IC50 for Cc1c(C(=O)N(C)C2CCOCC2)cc(-c2ccc(S(=O)(=O)NC(C)(C)C)c(C(C)(C)C)c2)n1CC1CCCCC1 .
0.631

----------
Catalogue of molecules with associated log10 IC50
molecular target: RORγ ligand binding domain (LBD) (Homo sapiens); construct: made in house; host or cells: E. coli BL-21 (BL3), vector pDEST15; assay: TR-FRET Activity Assay (ligand sensing, RORγ-LBD / coactivator peptide interaction, LANCE); assay type: biochemical; details: first value of the cell FRET/FF/REN; TR-FRET activity assay; read-out: pIC50 (FRET) (converted)
Field: value | Transform: log10 | Quantity: IC50 | Unit: µM

What value of measured log10 IC50 is listed for Cc1c(C(=O)NC2CCOCC2)cc(-c2ccc(S(=O)(=O)N[C@@H](C)C(F)(F)F)c(C(C)(C)C)c2)n1CC1CCCCC1 [17/151] ?
-0.50

----------
# pIC50 (FF) listing for each entry below
biological target: RORγ (UniProt P51449); test: RORγ Gal4 Reporter Gene Assay in 293T cells (firefly and renilla luciferase); assay type: cell-based, human; conditions: second value of the cell; Gal4 reporter gene assay in 293T cells, firefly luciferase
Give the figure only, with no unit attached.

Cc1c(C(=O)NC2CCOCC2)cc(-c2ccc(S(=O)(=O)NC(C)(C)C)c(C(F)(F)F)c2)n1CC1(F)CCCCC1 ... 6.6
Cc1c(-c2cc(C(=O)N[C@H]3C[C@H](C(=O)O)C3)c(C)n2CC2CCCCC2)ccc(S(=O)(=O)NC(C)(C)C)c1C ... 6.8
Cc1c(C(=O)NCC(C)(C)O)cc(-c2cc(C(C)(C)C)nc(C3(C)CC3)n2)n1CC1CCCCC1 ... 6.7

Note: attention shifts to another entry.
Item Cc1c(C(=O)NC2CCOCC2)cc(-c2ccc(S(=O)(=O)NC3CCC3)c(C(C)(C)C)c2)n1CC1CCCCC1 has what recorded pIC50 (FF)?
7.7

----------
pIC50 (REN) overview
target: RORγ (UniProt P51449); assay: RORγ Gal4 Reporter Gene Assay in 293T cells (firefly and renilla luciferase); assay type: cell-based, human; details: third value of the cell; Gal4 reporter gene assay in 293T cells, renilla normalised luciferase

Solved entries (count: 2):
Cc1c(C(N)=O)cc(-c2cccc(C(O)(C(F)(F)F)C(F)(F)F)c2)n1CC1CCCCC1 ... < 4.7
COCCNC(=O)c1cc(-c2cc(C(C)(C)C)cc(C(C)(C)C)c2)n(CC2CCCCC2)c1C ... 6.5/6.5/6.5

Suppose we examine the molecule COC(=O)CC1(NC(=O)c2cc(-c3cc(C(C)(C)C)cc(C(C)(C)C)c3)n(CC3CCCCC3)c2C)COC1 ; what pIC50 (REN) value has been reported?
6.5/6.5/6.5

----------
biological target: RORγ ligand binding domain (LBD) (Homo sapiens); construct: made in house; host or cells: E. coli BL-21 (BL3), vector pDEST15; assay: TR-FRET Activity Assay (ligand sensing, RORγ-LBD / coactivator peptide interaction, LANCE); format: biochemical
// pIC50 lookup, one value per entry
The meaning of pIC50 here: minus log10 of the concentration in molar units.

The following compounds have reported results that may help.
CCN(C(C)(C)C)S(=O)(=O)c1ccc(-c2cc(C(=O)NC3CCOCC3)c(C)n2CC2CCCCC2)cc1C(F)F ... 7.10
Cc1c(C(=O)NC2CCOCC2)cc(-c2ccc(C(=O)NC(C)(C)C)c(C(F)(F)F)c2)n1CC1CCCCC1 ... 5.00

Value lookup for pIC50; key = Cc1c(C(=O)NCC(C)(C)C(N)=O)cc(-c2cc(C(C)(C)C)cc(C(C)(C)C)c2)n1CC1CCCCC1
6.40

----------
target: RORγ (UniProt P51449); assay: RORγ Gal4 Reporter Gene Assay in 293T cells (firefly and renilla luciferase); assay type: cell-based, human
measure: pIC50 (REN)

Cc1c(C(=O)NC2CCOCC2)cc(-c2ccc(S(=O)(=O)NC(C)(C)CF)c(C(F)(F)F)c2)n1CC1CCCCC1 [18/5] ... 6.2/7.5/7.5
Cc1c(C(=O)NC2CCOCC2)cc(-c2ccc(S(=O)(=O)NC(C)(C)C)c(C(C)(C)C)c2)n1CC1CCC1 [17/213] ... 6.2/7.1/7.2
Cc1c(C(=O)NC2CCOCC2)cc(-c2ccc(C(=O)NCC3CCCCC3)c(C(C)(C)C)c2)n1CC1CCCCC1 [6/7] ... 6.0/6.5/6.4
Cc1c(C(=O)NC2COC2)cc(-c2cc(C(C)(C)C)cc(C(C)(C)C)c2)n1CC1CCCCC1 [1/53] ... 6.8/7.3/7.4
Cc1c(C(=O)NCCCCCO)cc(-c2cc(C(C)(C)C)c3c(c2)C2(CCO3)CC2)n1CC1CCCCC1 [1/40] ... 6.6/7.5/7.6

Form field: reported pIC50 (REN) of Cc1c(C(=O)NCCOCCO)cc(-c2cc(C(C)(C)C)cc(C(C)(C)C)c2)n1CC1CCCCC1 [1/63]
6.2/6.7/6.7

----------
molecular target: RORγ (UniProt P51449); test: RORγ Gal4 Reporter Gene Assay in 293T cells (firefly and renilla luciferase); type: cell-based, human; details: third value of the cell; Gal4 reporter gene assay in 293T cells, renilla normalised luciferase
Reported pIC50 (REN) by item:
Give the value as a plain number.

Cc1c(C(=O)N[C@H]2C[C@H](C(=O)O)C2)cc(-c2ccc(S(=O)(=O)NC(C)(C)C)c(Cl)c2Cl)n1CC1CCCCC1 ... 7.2
Cc1c(C(=O)NCCC(C)(C)C(=O)O)cc(-c2ccc(S(=O)(=O)NC(C)(C)C)c(C(F)(F)F)c2Cl)n1CC1CCCCC1 ... 7.2
Cc1c(C(=O)NC23CCC(C(=O)O)(CC2)CC3)cc(-c2cc(C(C)(C)O)cc(C3(C)CC3)c2)n1CC1CCCCC1 ... 7.2

Any idea what its pIC50 (REN) is? The compound is CC(C)(C)NS(=O)(=O)c1ccc(-c2cc(C(=O)N[C@H]3C[C@H](C(=O)O)C3)c(F)n2CC2CCCCC2)c2ccccc12
7.0

I have this compound here, CNC(=O)C1(CNC(=O)c2cc(-c3ccc(S(=O)(=O)NC(C)(C)C)c(C(F)(F)F)c3)n(CC3CCCCC3)c2C)CCOCC1 , and I need its recorded pIC50 (REN).
7.0

----------
molecular target: RORγ ligand binding domain (LBD) (Homo sapiens, UniProt P51449); construct: made in house; host or cells: E. coli BL-21 (BL3), vector pDEST15; test: TR-FRET Activity Assay (ligand sensing, RORγ-LBD / coactivator peptide interaction, LANCE); assay type: biochemical
Sequence (P51449 269-508 limits assumed): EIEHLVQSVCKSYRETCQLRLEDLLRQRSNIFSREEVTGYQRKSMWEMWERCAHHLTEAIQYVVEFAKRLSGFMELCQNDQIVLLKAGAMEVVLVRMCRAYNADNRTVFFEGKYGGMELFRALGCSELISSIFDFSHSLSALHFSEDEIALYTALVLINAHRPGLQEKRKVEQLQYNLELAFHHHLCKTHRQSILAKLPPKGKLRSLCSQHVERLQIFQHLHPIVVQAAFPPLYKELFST
measure: pIC50
// scale note: pIC50 = -log10(conc_M); give the bare number

Below are worked cases with known answers.
Cc1c(C(=O)NCCC(C)(C)C(N)=O)cc(-c2cc(C(C)(C)C)cc(C3(C)CC3)c2)n1CC1CCCCC1 ... 6.30
Cc1c(C(=O)NC23CCC(C(=O)O)(CC2)CC3)cc(-c2ccc(S(=O)(=O)NC(C)(C)C)c(C(F)(F)F)c2)n1CC1CCCCC1 ... 6.30

If you can, please state the reported pIC50 value of Cc1c(C(=O)NCC2(C)COC2)cc(-c2cc(C(C)(C)C)cc(C(C)(C)C)c2)n1CC1CCCCC1 .
6.90

----------
target: RORγ (UniProt P51449); experiment: RORγ Gal4 Reporter Gene Assay in 293T cells (firefly and renilla luciferase); type: cell-based, human; conditions: third value of the cell; Gal4 reporter gene assay in 293T cells, renilla normalised luciferase
measure: pIC50 (REN)

Cc1c(C(=O)NCCC(C)(C)C(N)=O)cc(-c2ccc(S(=O)(=O)NC(C)(C)C)c(C(F)(F)F)c2)n1CC1CCCCC1 ... 6.7
Cc1c(C(=O)NCC(C)(C)NS(=O)(=O)C2CC2)cc(-c2cc(C(C)(C)C)c3c(c2)C2(CCO3)CC2)n1CC1CCCCC1 ... 7.2
Cc1c(C(=O)NCC(C)(C)C(=O)O)cc(-c2cc(C(C)(C)C)c3c(c2)C(C)(C)C(=O)N3C)n1CC1CCCCC1 ... 7.1

Now let's try a different one.
Name the reported pIC50 (REN) value associated with the compound Cc1c(C(=O)N[C@H]2C[C@H](C(=O)O)C2)cc(-c2cc(C(=O)NC(C)(C)C)cc(C3(C)CC3)c2)n1CC1CCCCC1
7.7
